Listed here are sequences together with their documented apparent KD of MS2 coat protein.
Tested on: MS2 coat protein
ASSAY_DETAILS: apparent KD of MS2 coat protein; designed switch direction (-1 OFF switch, 1 ON switch): -1; higher = weaker reporter binding
PARTICULARS: input ligand: none
Expressed in nM, but write only the number.

**Q:** Return reported apparent KD of MS2 coat protein; argument: UUUACAAGCUAUAGAUCCCACAUGAGGAUCACCCAUGUUGCUGCCGGUGACGGUAGCAUAACUAUUGCUCGUCUUAU [JL TOV1 3.61] (Eterna round: R97, puzzle: Sensor, turn-off variant 1)
**A:** 185

**Q:** Quick one: apparent KD of MS2 coat protein for AGUGUGGGAGGAUAUACAUGAGGAUCACCCAUGUGAGUUGGCUCACAUGCUACGCUUCGUAGAAGGCCCAAAGA [Reragebion] (Eterna round: R96, puzzle: Exclusion 3) ?
**A:** 91.3

**Q:** Any idea what apparent KD of MS2 coat protein was measured for CGGAUGUAAGGAUAUUAGUAGUAGUCAGAAAAGACUAUUACUGAGAAGGUACAUGAGGAUCACCCAUGUUUCCG [Mat - Exclusion 4 - Eli Mod - D43] (Eterna round: R97, puzzle: Exclusion 4) ?
**A:** 15.8

**Q:** Look at this sequence and give its reported apparent KD of MS2 coat protein. CUGCUCCGUGUAGGAUAUGCAUGCAACCAAUAUGCAGAAGGACAUGAGGAUCACCCAUGUAUGUUAUUAUCACGUGAAGCGUCC [Design 22] (Eterna round: R96, puzzle: Exclusion NG 1)
**A:** 29.8

**Q:** // query apparent KD of MS2 coat protein value for entry UGCGGGCUUUUGAGACCUCACAUGAGGAUCACCCAUGUGCUCGUCUUAUGGGCCGGCCGGCCGUUGGCCGGCCGGCC [-44, -68.1 kcal, A 12%] (Eterna round: R97, puzzle: Sensor, turn-off variant 1)
**A:** 67.8

**Q:** apparent KD of MS2 coat protein for GUUAUGUCAGGAUAUGCUAAUGAUGAGUGAUCAGACAUGAUGUAGAAGGGACAUGAGGAUCACCCAUGUACUAA [EX4 #9] (Eterna round: R97, puzzle: Exclusion 4) ?
**A:** 29

====

Test system: K4 kissing-loop RNA reporter;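 note: bound reporter read as fluorescence of individual clusters on recovered sequencing chips by microscopy, with normalized cluster intensities fitted with a binding model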
ASSAY_DETAILS: apparent KD of K4 kissing-loop reporter; higher = weaker reporter binding
PARTICULARS: Eterna round: R107; input ligand: FMN 200 uM
Each entry below lists one item and its recorded apparent KD of K4 kissing-loop reporter value.
Express the result in nM but write the number alone.

Example entries and their recorded answers appear below.
INSERT INTO results (sequence, property_name, numeric_result) VALUES
  ('UAUAGACAAGUGAUGUUUGUCAUAUCCGAAGGAGCGUCUUCUAAGACAGGUAGGUCGCGGAUUAAUUUUGUUAUGAUACUAUUUA [JR_SSArginiA_Sub016]', 'apparent KD of K4 kissing-loop reporter', 122),
  ('AAUUUACAAUAAUCAUUUAAAGGAUCAGAAGGAGCGUGAAAUAACACAGGUAGGUCGCUGAGCGAGUGAUGUUCGCUAUAUACAA [JR_ExcArginiA_Sub001]', 'apparent KD of K4 kissing-loop reporter', 52.3),
  ('UGUGAACAAAAGUAGAGUGGACCACUAUAGCGAGGACCGGUACGGCCGCCACUCGUACAUGUAUUCAGUGAUGUUGAAAUGAGCU [whbob_EX_Tryp_A_t15]', 'apparent KD of K4 kissing-loop reporter', 200),
  ('GGGAGUAGUGCGGCCGCCACUGAGAAAGAAGAAGAAUAUAGUGAUGUUAUGUGGGAAAGGAAGAACAGGACCGGGCAUUAGAUUU [#21 K4 Tryptophan B Same State]', 'apparent KD of K4 kissing-loop reporter', 821),
  ('UGGGAUGUUAAAGGAUAUAGCAAGUGAUAUAAGAAAGUGAGUGAUGUUUAUGUAGGUGAUGAUAUGUUAGAAGGUUAACAAAACG [abcdefgh]', 'apparent KD of K4 kissing-loop reporter', 296);

// next item, apparent KD of K4 kissing-loop reporter requested
**Q:** // query apparent KD of K4 kissing-loop reporter value for entry GUAGCACUUGAUAGUGAUGUUAUCAAGGACAAGGAUAUCAUCUCAAUGAGAAGGUGUCCUUGAUAACAGCUACGGGAAUAUCCCA [Omei KL FMN A Exc D v1]
**A:** 103

====

Tested on: MS2 coat protein
ASSAY_DETAILS: apparent KD of MS2 coat protein; designed switch direction (-1 OFF switch, 1 ON switch): 1; higher = weaker reporter binding
PARTICULARS: Eterna round: R95; input ligand: microRNA oligo, concentration not stated
PROPERTY_NAME: apparent KD of MS2 coat protein (nM)
Answer in nM, number only, no unit symbol.

**Q:** // query apparent KD of MS2 coat protein value for entry GGAGCCGGCACUGAGGAUAUUCAUUUUAAAACAUGAGGAUCACCCAUGUAGGCCAGAAGGCCUUGGGAGAAGGCAGGUCGGCCCG [Bibimoar - 6] (puzzle: Same State 2)
**A:** 190

**Q:** Any idea what apparent KD of MS2 coat protein was measured for CUGUGUUGCGGGCAGGAUAUGUAUUGGAAUACAUGAGGAUCACCCAUGUGCGGGUGUUUCACCCGACAGAAGGGCCAAUCGCGAC [JL-ss2-3.21 ViennaUCT mod] (puzzle: Same State 2) ?
**A:** 266

**Q:** For the sequence GGAGAGAGAGCACAGGAUAUUAGAGGAGAGACAUGAGGAUCACCCAUGUAAGAGAGAGAGGAGAGUGAGAAGGGUGAGAGAGAGG [Altered State 2-19 - Jieux - Same State 2] (puzzle: Same State 2) , what apparent KD of MS2 coat protein is on record?
**A:** 82.9

**Q:** Entry under review: AGUGCAGCCUGAGCUGCACAAAAGCAUGUACAUGAGGAUCACCCAUGUCAUGUACAAGCUUUUUGCUCGUCUUAAAA [Mat - hsa-mir-208a - Mod of JL - D20] (puzzle: Sensor for hsa-mir-208a) . Reported apparent KD of MS2 coat protein?
**A:** 15.4

**Q:** For the sequence shown here, UGCUAUUGUAUAUUGGUGCAAGCUUAUUGACAUGAGGAUCACCCAUGUACUCGUCUUAUGUGCAGUCCGUAGACUGC [JL-shm-2.25 Brourd mod] (puzzle: Sensor for hsa-mir-208a) , give the reported apparent KD of MS2 coat protein.
**A:** 13.9

====

apparent KD of MS2 coat protein listing for selected sequences.
System: MS2 coat protein
ASSAY_DETAILS: apparent KD of MS2 coat protein; designed switch direction (-1 OFF switch, 1 ON switch): -1; higher = weaker reporter binding
PARTICULARS: Eterna round: R95; input ligand: microRNA oligo, concentration not stated
Reply with just the number (in nM).

INSERT INTO assay_data (sequence, readout_unit, numeric_result) VALUES
  ('AUUGAUGUUGAGGAUAUGCUUUUAUUUGUUCUUGCAGAAGGCGAUACAUGAGGAUCACCCAUGUUCAUGGAAGU [JR_E6_Sub090] (puzzle: Exclusion 6)', 'nM', 39.7),
  ('UUAUAUAGUGUGAGGAUAUGCUGGUCCUUGGAUCAGCAGAAGGCACAUGAGGAUCACCCAUGUAGUUAAAUUUA [Mat - Exclusion 4 - JL Mod - D17] (puzzle: Brourd''s mod of Exclusion 4)', 'nM', 27.3);

Would you kindly look at the next entry?
**Q:** // map CGAUGUCUUCGGACAUCGAACAUGAGGAUCACCCAUGUAUAGAGCAGAUCUUCAUGCAAGCUUUUUGCUCGUCUUAU [Sensor v3 - turn-off variant 1 - 47] (puzzle: Sensor v3, turn-off variant 1) to recorded apparent KD of MS2 coat protein (system: MS2 coat protein)
**A:** 14.6

====

System: MS2 coat protein
ASSAY_DETAILS: apparent KD of MS2 coat protein, switch ON state; designed switch direction (-1 OFF switch, 1 ON switch): 1; higher = weaker reporter binding
PARTICULARS: FMN input: 0 or 200 uM; Eterna round: R93 (includes R88 designs)
PROPERTY_NAME: apparent KD of MS2 coat protein (µM)
Express your answer in µM, writing the number without its unit.

Solved entries (count: 10):
INSERT INTO assay_data (sequence, target_of_assay, readout_unit, numeric_result) VALUES
  ('AAAAAAAAAAGGCAGGAUAUUCAAAAAAAAACAUGAGGAUCACCCAUGUAAAAAAAAAAAAAAUGGAAGAAGGGCCAAAAAAAAAA [Fiskers Same State 2 D1]', 'MS2 coat protein', 'µM', 0.0188),
  ('CGAUCACAUGAGGAUCACCCAUGUAUCGAUAAACGAGGAUAUGGGAGCGGGAUCUGUGGACCAGAAGGCGUACGGA [Celeus]', 'MS2 coat protein', 'µM', 0.0234),
  ('AAAACACAUGAGGAUCACCCAUGUAAAAACAUGAGAGGAUAUGCAUGGAAAACAUGCUAUGCAGAAGGCUCAUGUG [SS1 - 3]', 'MS2 coat protein', 'µM', 0.0232),
  ('GAAAAACAUGAGGAUCACCCAUGUGUAAAUAUGGGAGGAUAUACGAAGACGUAAGUCAAAGUAGAAGGCCUAAAAG [Garnet 92]', 'MS2 coat protein', 'µM', 0.0247),
  ('AAUAUAUUAAGUGAGGAUAUCAUAGAAAAAACAUGAGGAUCACCCAUGUGGGAAACCUGGUCGGGUGAGAAGGCACUUAAUAUAU [Samwise Clockwise 29 - Jieux - Same State 2]', 'MS2 coat protein', 'µM', 0.0714),
  ('GGAAAUAAAAGAGAGGAUAUCCAAAGGAAAACAUGAGGAUCACCCAUGUAAAAGGAAGGAAAGUGGGAGAAGGCUCAAAAUAAGG [salish99-ss2-008]', 'MS2 coat protein', 'µM', 0.0296),
  ('AGGAAACAUGAGGAUCACCCAUGUAAAAAAGUGGGAGGAUAUGCGAAAAGAAAAAGAAAAGCAGAAGGCCUAAGAA [62%, Something completely different, 6]', 'MS2 coat protein', 'µM', 0.0219),
  ('AAACCACAUGAGGAUCACCCAUGUAAAAUAAUGGGAGGAUAUACUAGAAGAAACAAAAUAGUAGAAGGCUCAAAAA [75%, Ex sub1, 34]', 'MS2 coat protein', 'µM', 0.0282),
  ('UAAAAACAUGAGGAUCACCCAUGUAAGAUAAACACAGGAUAUGCGAAAAGAAACAAAGAAGCAGAAGGGUGAAAAU [Mat - Same State 1 - Tesla mod - 44]', 'MS2 coat protein', 'µM', 0.0173),
  ('CAUCAUGCGCCUAAGGAUAUGUCUCACAAGACAUGAGGAUCACCCAUGUAGAAUAAAUAAAUGAUGCAGAAGGUGGAGUGCAUGA [Inares]', 'MS2 coat protein', 'µM', 0.0506);

**Q:** Look up apparent KD of MS2 coat protein with MS2 coat protein for this sequence: AGGAAACAUGAGGAUCACCCAUGUAAAGAUGGAGGAGGAUAUCGAAAGAAAAGAAAGAAACGAGAAGGCCUAAAAG [59%, Flamingo, 2]
**A:** 0.0209

**Q:** Which measured apparent KD of MS2 coat protein belongs to AACAAUCUAUCUGAGGAUAUCAUAAAAAAAACAUGAGGAUCACCCAUGUGCAGGAAAACUGCAUAUGAGAAGGCAGAUAGAUUGA [SS2: 1102] , tested on MS2 coat protein?
**A:** 0.00873

Data provenance is the supplement of paper PMC9170038.
